# TARGET OF ASSAY: BRM (Homo sapiens)
# Construct: made in house; host or cells: High Five insect cells
# Sequence (P51531 whole entry): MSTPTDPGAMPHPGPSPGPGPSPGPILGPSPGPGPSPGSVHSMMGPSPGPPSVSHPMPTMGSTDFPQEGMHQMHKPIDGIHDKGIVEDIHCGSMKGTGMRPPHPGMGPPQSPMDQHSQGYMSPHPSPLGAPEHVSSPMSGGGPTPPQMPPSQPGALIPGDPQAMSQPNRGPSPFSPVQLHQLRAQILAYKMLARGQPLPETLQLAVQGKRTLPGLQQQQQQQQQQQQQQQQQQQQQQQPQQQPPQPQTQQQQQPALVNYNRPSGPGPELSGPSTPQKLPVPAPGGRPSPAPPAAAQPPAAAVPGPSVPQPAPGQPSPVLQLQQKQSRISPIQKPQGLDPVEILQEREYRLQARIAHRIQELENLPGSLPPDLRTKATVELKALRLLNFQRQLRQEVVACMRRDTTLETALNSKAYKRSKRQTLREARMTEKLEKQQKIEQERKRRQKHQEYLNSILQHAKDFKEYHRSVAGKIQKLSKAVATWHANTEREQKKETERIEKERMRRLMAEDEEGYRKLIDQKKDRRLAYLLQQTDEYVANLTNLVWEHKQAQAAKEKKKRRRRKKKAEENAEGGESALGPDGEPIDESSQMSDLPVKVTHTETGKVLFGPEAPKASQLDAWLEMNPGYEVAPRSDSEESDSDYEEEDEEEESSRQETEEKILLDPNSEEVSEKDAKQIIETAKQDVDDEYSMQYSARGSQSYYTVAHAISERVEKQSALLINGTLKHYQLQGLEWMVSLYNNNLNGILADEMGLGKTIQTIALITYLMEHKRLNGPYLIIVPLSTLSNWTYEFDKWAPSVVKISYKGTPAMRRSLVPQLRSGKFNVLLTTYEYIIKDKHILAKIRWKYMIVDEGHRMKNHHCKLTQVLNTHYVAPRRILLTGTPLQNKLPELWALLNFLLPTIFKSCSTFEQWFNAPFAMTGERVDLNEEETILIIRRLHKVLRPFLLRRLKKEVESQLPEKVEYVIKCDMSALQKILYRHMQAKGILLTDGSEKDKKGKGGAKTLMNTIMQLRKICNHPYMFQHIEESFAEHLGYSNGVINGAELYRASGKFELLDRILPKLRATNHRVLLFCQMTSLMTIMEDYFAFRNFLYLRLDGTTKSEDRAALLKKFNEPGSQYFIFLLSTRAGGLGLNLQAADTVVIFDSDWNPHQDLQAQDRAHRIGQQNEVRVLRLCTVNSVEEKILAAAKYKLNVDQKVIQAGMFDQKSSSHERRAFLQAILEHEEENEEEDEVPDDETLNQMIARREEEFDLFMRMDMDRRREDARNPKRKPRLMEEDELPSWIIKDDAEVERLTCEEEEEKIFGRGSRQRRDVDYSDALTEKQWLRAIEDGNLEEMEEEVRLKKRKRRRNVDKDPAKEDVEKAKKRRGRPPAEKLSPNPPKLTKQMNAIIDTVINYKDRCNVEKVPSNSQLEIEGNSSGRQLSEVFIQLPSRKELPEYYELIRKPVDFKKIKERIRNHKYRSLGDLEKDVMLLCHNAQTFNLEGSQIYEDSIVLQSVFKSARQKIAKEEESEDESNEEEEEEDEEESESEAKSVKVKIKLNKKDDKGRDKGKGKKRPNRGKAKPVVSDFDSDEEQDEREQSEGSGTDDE
# METHOD DESCRIPTION: ATPase catalytic activity of BRM, ADP-Glo in vitro biochemical assay
# APPLIED CONDITIONS: ATPase catalytic activity, ADP-Glo; 30 nM BRM, 400 μM ATP
Checkbox rule: IC50 lower than 0.01 µM = true (1); IC50 not lower than 0.01 µM = false (0).

>>> df
                                   compound     target_of_assay  class_label
0  COCCc1cnc2c(c1)CCCN2c1ccc2cnc(CNC(=O)c3ccc4c(c3)S(=O)(=O)CCOC4)cc2n1 [Compound 510]  BRM (Homo sapiens)    false (0)
1  O=C(NCc1cc2nc(N3CCc4nccnc4C3)ccc2cn1)c1ccc2c(c1)S(=O)(=O)CCOC2 [Compound 546]  BRM (Homo sapiens)    false (0)
2  C[C@H]1Cc2ccc(-c3ccc4cnc(CNC(=O)c5ccc6c(c5)S(=O)(=O)CCOC6)cc4n3)nc2N(C)C1 [Compound 662]  BRM (Homo sapiens)    false (0)
3  C[C@H]1COCc2ccc(C(=O)NCc3cc4nc(-c5cccc(OC(F)(F)F)n5)ccc4cn3)cc2S1(=O)=O [Compound 388]  BRM (Homo sapiens)    false (0)
4  CO[C@H]1C[C@H]1N(C)c1cccc(-c2ccc3cnc(CNC(=O)c4ccc5c(c4)S(=O)(=O)CCOC5)cc3n2)n1 [Compound 534]  BRM (Homo sapiens)     true (1)

The reported numbers originate from patent US20230416248A1.
